- target_of_assay: Free fatty acid receptor 1 (Homo sapiens)
- Sequence (O14842 whole entry): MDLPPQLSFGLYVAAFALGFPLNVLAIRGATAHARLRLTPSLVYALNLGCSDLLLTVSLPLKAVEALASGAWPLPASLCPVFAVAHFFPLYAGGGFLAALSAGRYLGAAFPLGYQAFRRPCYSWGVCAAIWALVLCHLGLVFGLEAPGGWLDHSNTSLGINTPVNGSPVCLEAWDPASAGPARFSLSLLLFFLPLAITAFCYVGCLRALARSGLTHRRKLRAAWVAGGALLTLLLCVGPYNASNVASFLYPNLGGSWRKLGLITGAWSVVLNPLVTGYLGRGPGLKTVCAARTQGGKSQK
- protocol_summary: Agonist activity at human FFA1 receptor expressed in CHO cells assessed as increase in intracellular calcium levels measured for 90 secs by Fluo 4-AM dye based FLIPR assay
EC50 for assorted compounds
Express it in nM; write the number only.

{"molecule": "Cc1cc(OCCCCO[N+](=O)[O-])cc(C)c1-c1cccc(COc2ccc(OCC(=O)O)c(F)c2)c1", "EC50, nM": 93.7}
{"molecule": "Cc1cc(OCCO[N+](=O)[O-])cc(C)c1-c1cccc(COc2ccc(OCC(=O)O)c(F)c2)c1", "EC50, nM": 76.4}
{"molecule": "COc1cc(C)c(-c2cccc(COc3ccc(OCC(=O)O)c(F)c3)c2)c(C)c1", "EC50, nM": 54.2}

We next turn to a different compound, shown below.
Observed EC50 on Free fatty acid receptor 1 (Homo sapiens) for `Cc1cc(OCCCO[N+](=O)[O-])cc(C)c1-c1cccc(COc2ccc(OCC(=O)O)c(F)c2)c1` , please.
61.5
